test system: HS 578T breast; experiment: NCI tumour cell line growth inhibition, 48 h
Quick list: TGI per entry.

Here are 5 compounds together with their reported answers.
compound	TGI
C=CC1C(OC2OC(CO)C(O)C(O)C2O)OC=C(C(=O)OC)C1CC1CC(=O)CC(CCc2ccc(O)cc2)O1 (centres undefined)	> 100 µM
c1ccc([P+](CC[P+](c2ccccc2)(c2ccccc2)c2ccccc2)(c2ccccc2)c2ccccc2)cc1	> 100 µM
N#CC1=C(N)Oc2cc(O)ccc2C1c1cccc2ccccc12 (centres undefined)	73 µM
C=C(C(=O)O)[C@@H]1C[C@@H](OC(C)=O)[C@]2(C)CC/C=C(\C)CCC[C@H](C)[C@H](O)[C@@H]1O2	> 100 µM
COc1ccc(-c2coc3c4c(ccc3c2=O)OCO4)cc1OC	> 100 µM

Query: Output measured TGI for this item: N#Cc1[nH]c(=S)[nH]c1N
Result: > 100 µM

Query: Output measured TGI for this item: Cc1ccccc1N/C(=C(/C(Cl)=C(Cl)Cl)[N+](=O)[O-])n1nnc2ccccc21
Result: 27.1 µM

Query: Output measured TGI for this item: Cc1nc2sc3c(c2c(=O)[nH]1)CCCC3
Result: > 100 µM

Query: Output measured TGI for this item: CCOC(=O)C1(C/C=C/CBr)CCc2ccccc2C1=O (centres undefined)
Result: 94.4 µM

Measured values drawn from PubChem BioAssay (NCI) for this set.
